- study target: p-Akt3 in WM115 cells (Homo sapiens, UniProt Q9Y243)
- Construct: SureFire assays to detect cellular p-Akt1, p-Akt2 and p-Akt3 levels in WM115 cells (Akt2/3) and LNCaP cells (Akt1); endogenous in cells; host or cells: WM115 (ECACC 91061232), insulin-stimulated
- Sequence (Q9Y243 whole entry): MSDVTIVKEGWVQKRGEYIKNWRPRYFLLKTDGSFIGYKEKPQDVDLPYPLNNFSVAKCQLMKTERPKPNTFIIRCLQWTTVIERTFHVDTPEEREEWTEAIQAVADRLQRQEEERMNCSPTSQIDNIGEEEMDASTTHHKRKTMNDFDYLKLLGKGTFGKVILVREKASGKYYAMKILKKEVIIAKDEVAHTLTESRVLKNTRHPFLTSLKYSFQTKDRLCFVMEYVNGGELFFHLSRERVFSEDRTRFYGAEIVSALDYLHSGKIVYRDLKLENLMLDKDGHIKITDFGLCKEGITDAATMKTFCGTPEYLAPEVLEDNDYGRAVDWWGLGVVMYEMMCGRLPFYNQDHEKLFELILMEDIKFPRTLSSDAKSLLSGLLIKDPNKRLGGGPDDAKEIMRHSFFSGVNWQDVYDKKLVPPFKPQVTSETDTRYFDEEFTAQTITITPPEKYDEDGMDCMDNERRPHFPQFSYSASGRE
- experimental details: Phospho-Akt cellular SureFire assay, p-Akt3 in WM115 cells
- Type: cell-based
- measurement parameters: insulin stimulated, read-out: Biological Assay 2 IC50 (nM) Akt3 WM115
Friendly reminder: IC50 below 100 nM is Condition met, at or above is Condition not met.

item smiles | study target | assigned class
CC(=O)N(C)[C@H]1CC[C@H](CC(=O)Nc2cc(-c3ccsc3)c(-c3ccc(C(C)(C)N)cc3)nn2)CC1 | p-Akt3 in WM115 cells (Homo sapiens, UniProt Q9Y243) | Condition not met
CN(C(=O)C1CC1)[C@H]1CC[C@H](CC(=O)Nc2cc(-c3ccccc3)c(-c3ccc(C4(N)CC4)cc3)nn2)CC1 | p-Akt3 in WM115 cells (Homo sapiens, UniProt Q9Y243) | Condition not met
CCN(C(=O)C1CC1)[C@H]1CC[C@H](CC(=O)Nc2cc(-c3ccccc3)c(-c3ccc([C@]4(N)C[C@](C)(O)C4)cc3)nn2)CC1 | p-Akt3 in WM115 cells (Homo sapiens, UniProt Q9Y243) | Condition met
CN([C@H]1CC[C@H](CC(=O)Nc2cnc(-c3ccc(C(C)(C)N)cc3)c(-c3ccsc3)c2)CC1)S(C)(=O)=O | p-Akt3 in WM115 cells (Homo sapiens, UniProt Q9Y243) | Condition not met
CCN(C(=O)OC)[C@H]1CC[C@H](CC(=O)Nc2cnc(-c3ccc([C@]4(N)C[C@](C)(O)C4)cc3)c(-c3ccccc3)c2)CC1 | p-Akt3 in WM115 cells (Homo sapiens, UniProt Q9Y243) | Condition met
CCOC(=O)N(C)[C@H]1CC[C@H](CC(=O)Nc2cnc(-c3ccc([C@]4(N)C[C@](C)(O)C4)cc3)c(-c3ccccc3)c2)CC1 | p-Akt3 in WM115 cells (Homo sapiens, UniProt Q9Y243) | Condition met

* * *

- study target: p-Akt2 in WM115 cells (Homo sapiens, UniProt P31751)
- Construct: SureFire assays to detect cellular p-Akt1, p-Akt2 and p-Akt3 levels in WM115 cells (Akt2/3) and LNCaP cells (Akt1); endogenous in cells; host or cells: WM115 (ECACC 91061232), insulin-stimulated
- Sequence (P31751 whole entry): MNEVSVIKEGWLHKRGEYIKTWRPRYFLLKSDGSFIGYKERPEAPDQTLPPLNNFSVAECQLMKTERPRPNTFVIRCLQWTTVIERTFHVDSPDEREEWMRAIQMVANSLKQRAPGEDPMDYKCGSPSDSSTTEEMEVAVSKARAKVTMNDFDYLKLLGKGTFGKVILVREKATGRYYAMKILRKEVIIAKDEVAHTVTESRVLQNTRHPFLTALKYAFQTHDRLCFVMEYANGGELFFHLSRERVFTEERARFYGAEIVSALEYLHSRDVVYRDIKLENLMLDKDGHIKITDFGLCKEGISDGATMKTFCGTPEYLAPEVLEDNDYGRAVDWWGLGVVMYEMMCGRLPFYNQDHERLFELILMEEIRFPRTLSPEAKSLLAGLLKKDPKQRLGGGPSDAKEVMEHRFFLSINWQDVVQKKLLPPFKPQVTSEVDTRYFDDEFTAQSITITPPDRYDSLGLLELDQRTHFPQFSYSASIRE
- experimental details: Phospho-Akt cellular SureFire assay, p-Akt2 in WM115 cells
- Type: cell-based
- measurement parameters: insulin stimulated, read-out: Biological Assay 2 IC50 (nM) Akt2 WM115
Friendly reminder: IC50 below 4000 nM is yes (1), at or above is no (0).

item smiles | assigned class
CC(C)(C)CC(=O)N[C@H]1CC[C@H](CC(=O)Nc2cnc(-c3ccc(C(C)(C)N)cc3)c(-c3ccccc3)c2)CC1 | no (0)
CCC(=O)N(CC)[C@H]1CC[C@H](CC(=O)Nc2cc(-c3ccccc3)c(-c3ccc([C@]4(N)C[C@](C)(O)C4)cc3)nn2)CC1 | yes (1)
COC1(OC)CCC(CC(=O)Nc2cnc(-c3ccc(C4(N)COC4)cc3)c(-c3ccccc3)c2)CC1 | yes (1)
CN(C(=O)C(F)F)[C@H]1CC[C@H](CC(=O)Nc2cc(-c3ccccc3)c(-c3ccc([C@]4(N)C[C@](C)(O)C4)cc3)cn2)CC1 | yes (1)
CCC(=O)N(C)[C@H]1CC[C@H](CC(=O)Nc2cc(-c3ccccc3)c(-c3ccc([C@]4(N)C[C@](C)(O)C4)cc3)cn2)CC1 | yes (1)
COC(=O)N(C(C)C)[C@H]1CC[C@H](CC(=O)Nc2cnc(-c3ccc(C4(N)CCC4)cc3)c(-c3ccccc3)c2)CC1 | no (0)
NC1(c2ccc(-c3cnc(NC(=O)C[C@H]4CC[C@H](N5CCOC5=O)CC4)cc3-c3ccsc3)cc2)CCC1 | yes (1)
COC(=O)N(C)[C@H]1CC[C@H](CC(=O)Nc2cc(-c3ccccc3F)c(-c3ccc([C@]4(N)C[C@](C)(O)C4)cc3)cn2)CC1 | yes (1)
COC(=O)N(C)[C@H]1CC[C@H](CC(=O)Nc2cc(-c3ccsc3)c(-c3ccc([C@]4(N)C[C@](C)(O)C4)cc3)nn2)CC1 | yes (1)
CCCC(=O)N(C)[C@H]1CC[C@H](CC(=O)Nc2cnc(-c3ccc(C4(N)CC4)cc3)c(-c3ccccc3)c2)CC1 | yes (1)
CCC(=O)N(C)[C@H]1CC[C@H](CC(=O)Nc2cc(-c3ccsc3)c(-c3ccc([C@]4(N)C[C@H](F)C4)cc3)nn2)CC1 | yes (1)
CCC(=O)N(C)[C@H]1CC[C@H](CC(=O)Nc2cc(-c3ccccc3)c(-c3ccc(C4(N)CC4)c(F)c3)nn2)CC1 | no (0)
CC(=O)N(C)[C@H]1CC[C@H](CC(=O)Nc2cc(-c3ccsc3)c(-c3ccc(C(C)(C)N)cc3)nn2)CC1 | no (0)
CC(=O)N(C)[C@H]1CC[C@H](CC(=O)Nc2cnc(-c3ccc(C4(N)CC4)cc3)c(-c3ccccc3)c2)CC1 | yes (1)
NC1(c2ccc(-c3cnc(NC(=O)C[C@H]4CC[C@H](N5CCCC5=O)CC4)cc3-c3ccccc3)cc2)CC1 | yes (1)
C[C@]1(O)C[C@@](N)(c2ccc(-c3nnc(NC(=O)C[C@H]4CC[C@H](N5CCCCC5=O)CC4)cc3-c3ccccc3)cc2)C1 | yes (1)
CC(=O)N(C)[C@H]1CC[C@H](CC(=O)Nc2cc(-c3ccccc3)c(-c3ccc(C(C)(C)N)cc3)cn2)CC1 | no (0)
CC(C)(N)c1ccc(-c2nnc(NC(=O)C[C@H]3CC[C@H](N4CCOC4=O)CC3)cc2-c2ccccc2)cc1 | no (0)
CCC(=O)N(C(C)C)[C@H]1CC[C@H](CC(=O)Nc2cnc(-c3ccc([C@]4(N)C[C@](C)(O)C4)cc3)c(-c3ccccc3)c2)CC1 | yes (1)
NC1(c2ccc(-c3ncc(NC(=O)C[C@H]4CC[C@H](N5CCOCC5)CC4)cc3-c3ccccc3)cc2)CC(F)(F)C1 | no (0)
COC(=O)N(C)[C@H]1CC[C@H](CC(=O)Nc2cc(-c3ccccc3)c(-c3ccc([C@]4(N)C[C@](C)(O)C4)cc3)nn2)CC1 | yes (1)
CC(=O)N(C)[C@H]1CC[C@H](CC(=O)Nc2cnc(-c3ccc(C(C)(C)N)c(F)c3)c(-c3ccccc3)c2)CC1 | no (0)
COC(=O)N(C)[C@H]1CC[C@H](CC(=O)Nc2cc(-c3ccsc3)c(-c3ccc(C(C)(C)N)cc3)nn2)CC1 | no (0)
CCC(=O)N(C)[C@H]1CC[C@H](CC(=O)Nc2cc(-c3ccsc3)c(-c3ccc([C@]4(N)C[C@](C)(O)C4)cc3)cn2)CC1 | yes (1)
CC(C)C(=O)N(C)[C@H]1CC[C@H](CC(=O)Nc2cc(-c3ccccc3)c(-c3ccc([C@]4(N)C[C@](C)(O)C4)cc3)cn2)CC1 | yes (1)
CCOC(=O)N(C)[C@H]1CC[C@H](CC(=O)Nc2cnc(-c3ccc(C(C)(C)N)cc3)c(-c3ccccc3)c2)CC1 | no (0)

* * *

Recorded IC50 by entry
- study target: p-Akt2 in WM115 cells (Homo sapiens)
- Construct: SureFire assays to detect cellular p-Akt1, p-Akt2 and p-Akt3 levels in WM115 cells (Akt2/3) and LNCaP cells (Akt1); endogenous in cells; host or cells: WM115 (ECACC 91061232), insulin-stimulated
- experimental details: Phospho-Akt cellular SureFire assay, p-Akt2 in WM115 cells
- Format: cell-based
- measurement parameters: insulin stimulated, read-out: Biological Assay 2 IC50 (nM) Akt2 WM115

item smiles | reported relation | IC50, nM
CC(C)N(C(=O)C1CC1)[C@H]1CC[C@H](CC(=O)Nc2cc(-c3ccccc3)c(-c3ccc([C@]4(N)C[C@](C)(O)C4)cc3)cn2)CC1 | = | 2700
CC(=O)N(C)[C@H]1CC[C@H](CC(=O)Nc2cc(-c3ccccc3)c(-c3ccc(C4(N)CC4)c(F)c3)nn2)CC1 | > | 13000
CC(=O)N(C)[C@H]1CC[C@H](CC(=O)Nc2cc(-c3ccsc3)c(-c3ccc(C4(N)CCC4)cc3)cn2)CC1 | = | 1400
CC(C)(N)c1ccc(-c2cnc(NC(=O)C[C@H]3CC[C@H](N4CCCC4=O)CC3)cc2-c2ccccc2)cc1 | = | 4400
N[C@]1(c2ccc(-c3nnc(NC(=O)C[C@H]4CC[C@H](N5CCCC5=O)CC4)cc3-c3ccccc3)cc2)C[C@@H](F)C1 | = | 1700
CCC(=O)N(C)[C@H]1CC[C@H](CC(=O)Nc2cc(-c3ccccc3)c(-c3ccc([C@]4(N)C[C@](C)(O)C4)c(F)c3)nn2)CC1 | = | 3300
